- Test system: L1210
- Assay Explanation: Antiproliferative activity against mouse L1210 leukemia cell line
- Type: functional, cell-based
Measurement Label: IC50 (nM)

Check out these entries, answers already filled in.
compound="C=C1C(=O)ON(C)C1c1ccc([N+](=O)[O-])cc1 (centres undefined)" units_label=nM test_result=800
compound="C=C1C(=O)ON(C)C1c1ccc2c(c1)OCO2 (centres undefined)" units_label=nM test_result=7000
compound="C=C1C(=O)ON(C)C1c1ccc(Br)cc1 (centres undefined)" units_label=nM test_result=700
compound="C=C1C(=O)ON(C)C1C(C)CCC (centres undefined)" units_label=nM test_result=1900
compound="C=C1C(=O)ON(C)C1c1ccc(OC)cc1 (centres undefined)" units_label=nM test_result=3500

A. C=C1C(=O)ON(C)C1C(C)C (centres undefined)
B. C=C1C(=O)ON(C)C1c1ccccc1 (centres undefined)
C. C=C1C(=O)ON(C)C1c1ccc(C)cc1 (centres undefined)
Order the items by recorded IC50; the first position goes to the largest value. Form entry: ranked labels (order as requested).
B, A, C
(B: 5500 nM, A: 2630 nM, C: 800 nM)
